Target: Retinoic acid receptor gamma (Homo sapiens)
Assay: Agonist activity for Retinoic acid receptor gamma as photons in presence and absence of ligand
Assay type: functional
Design: concentration or dose not given beside the values
Mark yes (1) only for Activity values smaller than 9; exact matches and larger values are no (0).

Example results:
smiles_code: C=C(/C=C/c1ccccc1)C/C=C/C(C)=C\C(=O)O
group: yes (1)
--
smiles_code: COC(=O)\C=C(C)/C(C#N)=C/C=C(C)/C=C/C1=C(C)CCCC1(C)C
group: yes (1)
--
smiles_code: C=C(/C=C/C1=C(C)CCCC1(C)C)C/C=C/C(C)=C/C(=O)O
group: yes (1)
--
smiles_code: CC1=C(/C=C/C(C)=C/C=C(\C#N)C(C)=C(C(=O)O)C(=O)O)C(C)(C)CCC1
group: no (0)

QUERY: Dear colleague, could you confirm whether Activity of C=C(/C=C/C1=C(C)CCCC1(C)C)C/C=C/C=C\C(=O)O falls below 9? Thanks.
RESULT: yes (1)

QUERY: Dear colleague, could you confirm whether Activity of C=C(/C=C/C1=C(C)CCCC1(C)C)C/C=C/C(C)=C\C(=O)O falls below 9? Thanks.
RESULT: no (0)

###

Measured Activity values are reported for all entries that follow.
Target: Retinoic acid receptor alpha (Homo sapiens) (UniProt P10276)
Sequence (P10276 whole entry): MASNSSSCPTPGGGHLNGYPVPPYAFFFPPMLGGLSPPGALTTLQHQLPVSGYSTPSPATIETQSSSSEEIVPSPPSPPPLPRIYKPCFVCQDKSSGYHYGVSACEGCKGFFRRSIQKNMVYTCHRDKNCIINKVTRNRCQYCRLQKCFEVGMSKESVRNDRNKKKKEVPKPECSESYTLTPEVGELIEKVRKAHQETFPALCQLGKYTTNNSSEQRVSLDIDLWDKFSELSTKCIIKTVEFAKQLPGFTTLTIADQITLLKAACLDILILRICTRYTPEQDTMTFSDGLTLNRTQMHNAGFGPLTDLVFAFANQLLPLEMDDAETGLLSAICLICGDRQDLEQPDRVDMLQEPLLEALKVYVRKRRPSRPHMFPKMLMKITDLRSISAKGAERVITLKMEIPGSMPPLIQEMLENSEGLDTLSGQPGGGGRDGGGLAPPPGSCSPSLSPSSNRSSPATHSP
Assay: Agonist activity for Retinoic acid receptor alpha as photons in presence and absence of ligand
Type: functional
Parameters: unit not given here
Lab note: record just the number, no unit beside it.

// worked examples, Activity included
smiles_code: CC1=C(/C=C/C(C)=C/C=C(C#N)/C(C)=C\C(=O)O)C(C)(C)CCC1
experimental_readout: Activity
measurement: 23.5
--
smiles_code: COC(=O)\C=C(C)/C(C#N)=C/C=C(C)/C=C/C1=C(C)CCCC1(C)C
experimental_readout: Activity
measurement: 1.3
--
smiles_code: CC1=C(/C=C/C(C)=C/C=C(\C#N)C(C)=C(C(=O)O)C(=O)O)C(C)(C)CCC1
experimental_readout: Activity
measurement: 22.2
--
smiles_code: C=C(/C=C/C1=C(C)CCCC1(C)C)C/C=C/C(C)=C/C(=O)O
experimental_readout: Activity
measurement: 7
--
smiles_code: C=C(/C=C/c1ccccc1)C/C=C/C(C)=C\C(=O)O
experimental_readout: Activity
measurement: 4.9

QUERY: Report Activity, nothing else, for this molecule: C=C(/C=C/C1=C(C)CCCC1(C)C)C/C=C/C=C\C(=O)O
RESULT: 7.1

QUERY: Report Activity, nothing else, for this molecule: C=C(/C=C/C1=C(C)CCCC1(C)C)C/C=C/C(C)=C\C(=O)O
RESULT: 11.8

###

Molecular target: UniProt P28702
Sequence (P28702 whole entry): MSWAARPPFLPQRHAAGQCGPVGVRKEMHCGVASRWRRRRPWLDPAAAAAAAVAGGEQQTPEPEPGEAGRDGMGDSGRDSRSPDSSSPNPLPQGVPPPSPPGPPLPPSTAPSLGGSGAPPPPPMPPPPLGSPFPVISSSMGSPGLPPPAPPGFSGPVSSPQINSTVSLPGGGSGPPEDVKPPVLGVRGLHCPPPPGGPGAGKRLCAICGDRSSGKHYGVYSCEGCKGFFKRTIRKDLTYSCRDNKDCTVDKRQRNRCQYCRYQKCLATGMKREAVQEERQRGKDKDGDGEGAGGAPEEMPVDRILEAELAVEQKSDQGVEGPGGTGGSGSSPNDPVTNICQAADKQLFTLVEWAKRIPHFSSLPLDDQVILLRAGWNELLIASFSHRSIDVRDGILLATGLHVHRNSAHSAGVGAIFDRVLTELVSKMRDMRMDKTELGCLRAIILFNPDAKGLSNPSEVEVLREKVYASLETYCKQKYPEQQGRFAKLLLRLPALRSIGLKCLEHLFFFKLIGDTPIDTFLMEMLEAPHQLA
Assay: Agonist activity for Retinoid X receptor beta as photons in presence and absence of ligand
Type: functional
Set-up: unit not given here
experimental_readout: Activity
Lab note: record just the number, no unit beside it.

// worked examples, Activity included
smiles_code: C=C(/C=C/C1=C(C)CCCC1(C)C)C/C=C/C(C)=C/C(=O)O
Activity: 5.8
--
smiles_code: C=C(/C=C/C1=C(C)CCCC1(C)C)C/C=C/C=C\C(=O)O
Activity: 2

QUERY: Quote Activity with test system UniProt P28702 for CC1=C(/C=C/C(C)=C/C=C(C#N)/C(C)=C\C(=O)O)C(C)(C)CCC1
RESULT: 2.1
